# method_description: qHTS of pediatric cancer cell lines to identify multiple opportunities for drug repurposing: Primary screen for Saos-2 cells (AID 1347097); also: nearly all actives have a fitted effect of over 40% in size
# condition_details: Saos-2 viability, CellTiter-Glo ATP luminescence, 48 h; series mostly up to 46 µM
Results filed as inconclusive are left out. The source made the active and inactive calls. Calls follow the shape of the dose curve; as a rule, active = well fitted cell-killing curve with a large enough effect; inconclusive = small, poorly fitted or top-dose-only effect; inactive = no such curve, though single readings can be large or run the other way.
// one of 1 (yes) for active, 0 (no) for inactive, no free text

Prompt: Identify the outcome logged in this assay for the molecule shown: Cc1ccc(F)c(NC(=O)Nc2ccc(-c3cccc4[nH]nc(N)c34)cc2)c1
Response: 1 (yes)

Prompt: Continue with NC(=O)c1cccc2[nH]c(-c3ccc([C@H]4CCCN4)cc3F)nc12
Response: 0 (no)

Prompt: Continue with CC(C)(C)c1ccc(C(O)CCCN2CCC(C(O)(c3ccccc3)c3ccccc3)CC2)cc1 (centres undefined)
Response: 0 (no)

###

# Tested on: DIV17
# method_description: qHTS profiling for inhibitors of Plasmodium falciparum proliferation (AID 504749); also: nearly all actives have a fitted effect of over 60% in size
# condition_details: P. falciparum in erythrocytes, SYBR Green DNA, 72 h; series mostly up to 28.7 µM
Inconclusive results are not listed. Activity calls are given as the source filed them. Calls follow the shape of the dose curve; as a rule, active = well fitted inhibition curve with a large enough effect; inconclusive = small, poorly fitted or top-dose-only effect; inactive = flat fitted curve, though single readings scatter.
// one of active, inactive, no free text

Record excerpt, results attached:
C[C@@H](O)[C@H]1C(=O)N2C(C(=O)O)=C(S[C@@H]3CN[C@H](C(=O)N(C)C)C3)[C@H](C)[C@H]12 ... inactive
CCCCCN(C)CCC(O)(P(=O)(O)O)P(=O)(O)O ... inactive

Prompt: Identify the outcome logged in this assay for the molecule shown: CC1=C(/C=C/C(C)=C/C=C/C(C)=C/C(=O)Nc2ccc(O)cc2)C(C)(C)CCC1
Response: active

Prompt: Continue with O=C(O)Cc1cccc2ccccc12
Response: inactive

Prompt: Continue with CCCNC(=O)NS(=O)(=O)c1ccc(Cl)cc1
Response: inactive

Prompt: Continue with CCN1CCC[C@H]1CNC(=O)c1cc(S(N)(=O)=O)ccc1OC
Response: inactive

Prompt: Continue with COCCCCC(=NOCCN)c1ccc(C(F)(F)F)cc1
Response: active

Prompt: Continue with CCN(CC)CCNC(=O)c1ccc(N)cc1
Response: inactive

Prompt: Continue with CCN(CC)CCOC(=O)c1ccc(N)cc1
Response: inactive

Prompt: Continue with C[N+](C)(C)CCCCCC[N+](C)(C)C
Response: inactive

Prompt: Continue with CCN(CC)C(=O)c1ccc(O)c(OC)c1
Response: inactive

Prompt: Continue with COc1ccccc1N1CCN(CCCNc2cc(=O)n(C)c(=O)n2C)CC1
Response: inactive

Prompt: Continue with O=C(NCCN1CCOCC1)c1ccc(Cl)cc1
Response: inactive

Prompt: Continue with O=C(O)c1cc(-c2ccccc2)nc2ccccc12
Response: inactive

Prompt: Continue with Cc1cnc(C(=O)O)c[n+]1[O-]
Response: inactive

###

# method_description: qHTS of pediatric cancer cell lines to identify multiple opportunities for drug repurposing: Primary screen for A673 cells (AID 1347092); also: nearly all actives have a fitted effect of over 45% in size; also: potency is read from the fitted curve at half-maximal effect
# condition_details: A673 Ewing sarcoma viability, CellTiter-Glo ATP luminescence, 48 h; series mostly up to 46 µM
Results filed as inconclusive are left out. Active and inactive are the calls of the source. Calls follow the shape of the dose curve; as a rule, active = well fitted cell-killing curve with a large enough effect; inconclusive = small, poorly fitted or top-dose-only effect; inactive = no such curve, though single readings can be large or run the other way.
measure: Potency

Please review the following examples before continuing.
CC(C)(C)c1cc(C(=O)O)c(NC(=O)Nc2ccc3[nH]ncc3c2)s1 ... inactive
Nc1nc(F)nc2c1ncn2[C@@H]1O[C@H](COP(=O)(O)O)[C@@H](O)[C@H]1O ... 14.8 µM (active)
CN(C)CCC(c1ccccc1)c1ccccn1 (stereo not drawn) ... inactive
N[C@H](CSC(c1ccccc1)(c1ccccc1)c1ccccc1)C(=O)O ... 9.35 µM (active)
CC(C)NCC(O)COc1cccc2[nH]ccc12 (stereo not drawn) ... inactive
CO[C@H]1C=CO[C@@]2(C)Oc3c(C)c(O)c4c(O)c(c5c(c4c3C2=O)NC2(CCN(CC(C)C)CC2)N=5)=NC(=O)C(C)=CC=C[C@H](C)[C@H](O)[C@@H](C)[C@@H](O)[C@@H](C)[C@H](OC(C)=O)[C@H]1C ... inactive

Give measured Potency for every item shown.
1. COc1ccc(-c2cc(=O)c3c(O)cc(O)cc3o2)cc1O
2. COCCOc1nc(-c2ccc(Cl)c(Cl)c2)n(-c2ccc(NC(=O)CCl)cc2)n1

Response:
1: 4.69 µM (active); 2: 4.69 µM (active)

Give measured Potency for every item shown.
1. CC=C(C)C(=O)O[C@H]1C(C)=C[C@]23C(=O)[C@@H](C=C(CO)[C@@H](O)[C@]12O)[C@H]1[C@@H](C[C@H]3C)C1(C)C
2. CCC(CC)[C@H](NC(C)=O)[C@@H]1[C@H](O)[C@@H](C(=O)O)C[C@@H]1N=C(N)N

Response:
1: 0.0148 µM (active); 2: inactive

Give measured Potency for every item shown.
1. CC(=O)CCCCn1c(=O)c2c(ncn2C)n(C)c1=O
2. N#CC(=C(N)Sc1ccccc1N)C(C#N)=C(N)Sc1ccccc1N
3. CC(C)(C)Cn1c(N)nc2ccc(-c3[nH]c(C(C)(C)C)nc3-c3ccc(F)cc3)nc21
4. COc1cc2nc(-c3ccc(N4CCN(C)CC4)cc3)nc(NCCN3CCOCC3)c2cc1OC
5. O=C(CCc1ccc(O)cc1)c1c(O)cc(O)cc1O[C@@H]1O[C@H](CO)[C@H](O)[C@H](O)[C@H]1O
6. COc1cc(Nc2ncc(F)c(Nc3ccc4c(n3)NC(=O)C(C)(C)O4)n2)cc(OC)c1OC
7. O=C(Nc1c(Cl)cncc1Cl)c1ccc(OC(F)F)c(OCC2CC2)c1

Response:
["inactive", "2.35 µM (active)", "18.7 µM (active)", "0.0235 µM (active)", "inactive", "14.8 µM (active)", "inactive"]

Prompt: Which Potency value belongs to COc1ccc2c(Oc3ccc(NC(=O)c4c(C)n(CC(C)(C)O)n(-c5ccccc5)c4=O)cc3F)ccnc2c1 ?
Response: 23.5 µM (active)

###

# method_description: MultiTox-Fluor Cytotoxicity Assay - LYMP1-002 - Dead Cells (AID 960); also: nearly all actives have a fitted effect of over 60% in size
# condition_details: LYMP1-002 lymphoblastoid cells, dead-cell protease fluorescence; series mostly up to 46.1 µM
Inconclusive results are not listed. Active and inactive are the calls of the source. Calls follow the shape of the dose curve; as a rule, active = well fitted cell-killing curve with a large enough effect; inconclusive = small, poorly fitted or top-dose-only effect, or effect the other way; inactive = no such curve, though single readings can be large or run the other way.
// one of active, inactive, no free text

Record excerpt, results attached:
O=c1c(O)c(-c2ccc(O)cc2)oc2cc(O)cc(O)c12 ... inactive
O=C(O)c1cc(O)c2c(c1)C(=O)c1cccc(O)c1C2=O ... inactive
CC1=C(/C=C/C(C)=C/C=C/C(C)=C/C(=O)Nc2ccc(O)cc2)C(C)(C)CCC1 ... active
CN(C)CCC(c1ccccc1)c1ccccn1 (stereo not given) ... inactive
CCCNC(=O)NS(=O)(=O)c1ccc(Cl)cc1 ... inactive
CC/C(=C(\c1ccccc1)c1ccc(OCCN(C)C)cc1)c1ccccc1 ... active
O=C(O)Cc1cccc2ccccc12 ... inactive
CCn1cc(C(=O)O)c(=O)c2ccc(C)nc21 ... inactive

Prompt: Identify the outcome logged in this assay for the molecule shown: CCCCC1C(=O)N(c2ccccc2)N(c2ccccc2)C1=O
Response: inactive

Prompt: Continue with CC(=O)O[C@]1(C(C)=O)CC[C@H]2[C@@H]3C=C(Cl)C4=CC(=O)[C@@H]5C[C@@H]5[C@]4(C)[C@H]3CC[C@@]21C
Response: inactive

###

# method_description: Quantitative High-Throughput drug screen in 47 multiple myeloma cell lines against the NCATS MIPE library collection: H1112_PLB cell viability assay (AID 1918967; also: nearly all actives have a fitted effect of over 30% in size)
# condition_details: H1112 myeloma cells viability, ATP luminescence, 48 h; series mostly up to 45.8 µM
Inconclusive results are not listed. Activity calls are given as the source filed them. Calls come from the whole dose curve; as a rule, active = well fitted cell-killing curve with a large enough effect; inconclusive = small, poorly fitted or top-dose-only effect, or effect the other way; inactive = no such curve, though single readings can be large or run the other way.
// one of true (active), false (inactive), no free text

Record excerpt, results attached:
C[N+]1(C)[C@@H]2CC(OC(=O)[C@H](CO)c3ccccc3)C[C@H]1[C@H]1O[C@@H]12 (stereo not given in full) ... false
CC=CC(=O)N(CC)c1ccccc1C ... false
CO[C@H]1C=CO[C@@]2(C)Oc3c(C)c(O)c4c(O)c(c5c(c4c3C2=O)NC2(CCN(CC(C)C)CC2)N=5)=NC(=O)C(C)=CC=C[C@H](C)[C@H](O)[C@@H](C)[C@@H](O)[C@@H](C)[C@H](OC(C)=O)[C@H]1C ... false
CC1(C)S[C@H]2[C@H](NC(=O)[C@@H](N)c3ccc(O)cc3)C(=O)N2[C@@H]1C(=O)O ... false
COc1ccc(-c2oc3c(CC=C(C)C)c(OC4O[C@H](CO)[C@@H](O)[C@H](O)[C@@H]4O)cc(O)c3c(=O)c2OC2O[C@@H](C)[C@H](O)[C@@H](O)[C@@H]2O)cc1 (stereo not given in full) ... true
O=c1cc(CN2CCOCC2)occ1OCCCCCSc1ccnc2cc(C(F)(F)F)ccc12 ... true

Prompt: Identify the outcome logged in this assay for the compound shown: CC[C@H]1OC(=O)[C@H](C)[C@@H](O[C@H]2C[C@@](C)(OC)[C@@H](O)[C@H](C)O2)[C@H](C)[C@@H](O[C@@H]2O[C@H](C)C[C@H](N(C)C)[C@@H]2O)[C@](C)(O)C[C@@H](C)CN(C)[C@H](C)[C@@H](O)[C@]1(C)O
Response: false

Prompt: Continue with CC(C(=O)O)c1ccc(-c2ccccc2)c(F)c1 (stereo not given)
Response: true

Prompt: Continue with CN(C)c1cc(NC(=O)CNC(C)(C)C)c(O)c2c1C[C@@H]1C[C@H]3[C@H](N(C)C)C(=O)C(C(N)=O)=C(O)[C@@]3(O)C(=O)C1=C2O
Response: false

Prompt: Continue with CC(C)OC(=O)CCCC=CC[C@@H]1[C@H](C=C[C@@H](O)COc2cccc(C(F)(F)F)c2)[C@H](O)C[C@@H]1O
Response: true

Prompt: Continue with COc1ccc2cccc(CCNC(C)=O)c2c1
Response: false

Prompt: Continue with CC1(C)CCC[C@@]2(C)[C@@H]1CC[C@@]1(C)OC(=O)C[C@H]21
Response: false

Prompt: Continue with CCOC1OC(=O)C[C@H]1NC(=O)[C@@H]1CCCN1C(=O)[C@@H](NC(=O)c1ccc(N)c(Cl)c1)C(C)(C)C (stereo not given in full)
Response: false

Prompt: Continue with Clc1ccc(C(c2ccc(Cl)cc2)n2cc[n+](CC(OCc3ccc(Cl)cc3Cl)c3ccc(Cl)cc3Cl)c2)cc1 (stereo not given)
Response: true

Prompt: Continue with Cc1nnc(C(C)C)n1C1C[C@H]2CC[C@@H](C1)N2CC[C@H](NC(=O)C1CCC(F)(F)CC1)c1ccccc1 (stereo not given in full)
Response: true
